- experimental_system: récepteurs des benzodiazépines
- protocol_text: Benzodiazepine receptor binding, [³H] flunitrazépam displacement (modified Squires and Braestrup method)
- assay_context: concentration inhibiting by 50% the specific binding of 0,6 nanomoles of [³H] flunitrazépam; rat forebrain membrane preparations; read-out: Liaison aux récepteurs CI50
Form field: pIC50 (one value per entry).
The value called pIC50 is obtained by taking minus log10 of the concentration in mol/L.

Observed pIC50, récepteurs des benzodiazépines, CCc1c(OC)nc2nc(C(=O)[C@@H]3C[C@H]3C)cn2c1C (relative stereo) [Exemple 5] : 5.75

* * *

- experimental_system: récepteurs des benzodiazépines
- protocol_text: Benzodiazepine receptor binding, [³H] flunitrazépam displacement (modified Squires and Braestrup method)
- assay_context: concentration inhibiting by 50% the specific binding of 0,6 nanomoles of [³H] flunitrazépam; rat forebrain membrane preparations; read-out: Liaison aux récepteurs CI50
measurement_label: pIC50
The value called pIC50 is obtained by taking minus log10 of the concentration in mol/L.

# annotated cases, reported pIC50 shown
COc1nc2nc(C(=O)C3(C)CC3)cn2c2c1CCCC2	5.20
COc1nc2nc(C(=O)[C@@H]3C[C@H]3Cl)cn2c2c1CCCC2 (relative stereo)	6.74
CCOC(=O)[C@@H]1C[C@H]1C(=O)c1cn2c(C)c(CC)c(OC)nc2n1 (relative stereo)	6.25

response.value for COc1nc2nc(C(=O)[C@@H]3C[C@H]3C#N)cn2c2c1CCCC2 (relative stereo) (field: pIC50) = 6.00
